Test system: Rhizobium etli
test_description: microbe, parasite or virus in culture
Assay type: cell-based
experimental_parameters: 24 hrs
metric: MBC (µg/mL)
Field format: number, assumed µg/mL, no unit text.

Query :: MBC lookup needed for `CC(C)[C@H](NC(=O)c1ccccc1)C(=O)Nc1cccc(-n2cnnn2)c1` , thanks.
Result :: 32

New cases:
Query :: MBC lookup needed for `COc1ccc2nc(NC(=O)CSc3nc4cc(C)ccc4[nH]3)sc2c1` , thanks.
Result :: 32

Query :: Next: O=C1CC(c2ccccc2)CC2=C1C(c1cccs1)Nc1ccc(C(=O)c3ccccc3)cc1N2 (stereo not drawn)
Result :: 16
